Tested on: [Candida] zeylanoides
assay-overview: Antifungal activity against Candida zeylanoides CMGCC2.3739 measured after 24 hrs by micro-broth dilution assay
Type: functional
condition-context: Dujonia zeylanoides
Attribute: MIC
readout-name: MIC

- Clc1ccc(C(Cn2ccnc2)[Se]Cc2ccccc2Cl)c(Cl)c1 (stereo unspecified): 1 µg/mL
- Clc1ccc(C(Cn2ccnc2)[Se]Cc2ccc(Br)cc2)c(Cl)c1 (stereo unspecified): 2 µg/mL
- Fc1ccc(C(Cn2ccnc2)[Se]Cc2ccc(Cl)cc2)c(F)c1 (stereo unspecified): 1 µg/mL
- Clc1ccc(C(Cn2ccnc2)[Se]Cc2ccccc2Br)c(Cl)c1 (stereo unspecified): 0.25 µg/mL
- Clc1ccc(C[Se]C(Cn2ccnc2)c2ccc(Cl)cc2Cl)c(Cl)c1 (stereo unspecified): 2 µg/mL
- COc1cccc(C[Se]C(Cn2ccnc2)c2ccc(Cl)cc2Cl)c1 (stereo unspecified): 1 µg/mL
- Cc1cccc(C[Se]C(Cn2ccnc2)c2ccc(Cl)cc2Cl)c1 (stereo unspecified): 16 µg/mL
- Cc1ccc(C[Se]C(Cn2ccnc2)c2ccc(Cl)cc2Cl)cc1C (stereo unspecified): 128 µg/mL
- Fc1cccc(C[Se]C(Cn2ccnc2)c2ccc(Cl)cc2Cl)c1 (stereo unspecified): 1 µg/mL
- Fc1ccc(C(Cn2ccnc2)[Se]Cc2ccc(Cl)cc2Cl)c(F)c1 (stereo unspecified): 0.5 µg/mL
- Fc1ccc(C[Se]C(Cn2ccnc2)c2ccc(Cl)cc2Cl)cc1 (stereo unspecified): 4 µg/mL

====

System: Candida albicans
assay-overview: Antifungal activity against Candida albicans 901 measured after 24 hrs by micro-broth dilution assay
Assay type: functional
readout-name: MIC (µg/mL)

• COc1ccc(C[Se]C(Cn2ccnc2)c2ccc(F)cc2F)cc1 (stereo unspecified) = 8
• COc1cc(Br)c(C[Se]C(Cn2ccnc2)c2ccc(Cl)cc2Cl)cc1OC (stereo unspecified) = 128
• COc1ccc(C[Se]C(Cn2ccnc2)c2ccc(Cl)cc2Cl)cc1 (stereo unspecified) = 16
• Fc1cccc(C[Se]C(Cn2ccnc2)c2ccc(Cl)cc2Cl)c1 (stereo unspecified) = 0.25
• Cc1ccc(C[Se]C(Cn2ccnc2)c2ccc(F)cc2F)cc1C (stereo unspecified) = 128
• Fc1ccc(C(Cn2ccnc2)[Se]Cc2ccc(Cl)cc2Cl)c(F)c1 (stereo unspecified) = 0.5
• Clc1ccc(C(Cn2ccnc2)[Se]Cc2ccc(Br)cc2)c(Cl)c1 (stereo unspecified) = 64
• Fc1ccc(C[Se]C(Cn2ccnc2)c2ccc(Cl)cc2Cl)cc1 (stereo unspecified) = 32
• Clc1ccc(C[Se]C(Cn2ccnc2)c2ccc(Cl)cc2Cl)cc1 (stereo unspecified) = 8
• Fc1ccc(C(Cn2ccnc2)[Se]Cc2ccccc2)c(F)c1 (stereo unspecified) = 2
• Fc1ccc(C(Cn2ccnc2)[Se]Cc2ccccc2Cl)c(F)c1 (stereo unspecified) = 1

====

Test system: [Candida] zeylanoides
assay-overview: Antifungal activity against Candida zeylanoides CMGCC2.3739 measured after 24 hrs by micro-broth dilution assay
Assay type: functional
condition-context: Dujonia zeylanoides
readout-name: MIC (µg/mL)

- COc1cc(C[Se]C(Cn2ccnc2)c2ccc(Cl)cc2Cl)cc(OC)c1 (stereo unspecified): 1
- OC(Cn1cncn1)(Cn1cncn1)c1ccc(F)cc1F: 4
- COc1cc(C[Se]C(Cn2ccnc2)c2ccc(F)cc2F)cc(OC)c1 (stereo unspecified): 1
- Clc1ccc(COC(Cn2ccnc2)c2ccc(Cl)cc2Cl)c(Cl)c1 (stereo unspecified): 1
- Cc1ccc(C[Se]C(Cn2ccnc2)c2ccc(F)cc2F)cc1 (stereo unspecified): 0.5
- Fc1ccc(C[Se]C(Cn2ccnc2)c2ccc(F)cc2F)cc1 (stereo unspecified): 1
- Fc1cccc(C[Se]C(Cn2ccnc2)c2ccc(F)cc2F)c1 (stereo unspecified): 1
- Cc1ccc(C[Se]C(Cn2ccnc2)c2ccc(F)cc2F)cc1C (stereo unspecified): 1
- Fc1ccc(Br)c(C[Se]C(Cn2ccnc2)c2ccc(Cl)cc2Cl)c1 (stereo unspecified): 0.5
- Cc1ccc(C[Se]C(Cn2ccnc2)c2ccc(Cl)cc2Cl)cc1 (stereo unspecified): 16
- COc1cccc(C[Se]C(Cn2ccnc2)c2ccc(F)cc2F)c1 (stereo unspecified): 1
